src = patent US11767322B2

# System: MLKL phosphorylation in HT29-L23 human colorectal adenocarcinoma cells
# Experimental details: MLKL phosphorylation high-content assay
# Type: cell-based
# Measurement parameters: Homo sapiens, 6 h, read-out: pMLKL IC50, HT29-L23 cells; necroptosis induced with TNFα, SMAC mimetic and Z-VAD, 6 h; maximal inhibition defined by Nec1s
Each entry below carries its recorded IC50.
Readout name: IC50 (nM)

INSERT INTO measurements (compound, study_target, readout_name, assay_value) VALUES
  ('CCc1ccc(-c2ccn3nc(N)nc3c2)cc1C(=O)NCC[C@H](O)c1ccc(Cl)cc1', 'MLKL phosphorylation in HT29-L23 human colorectal adenocarcinoma cells', 'IC50', 5.7),
  ('CC(O)(c1ccc(F)cc1)C(F)(F)CNC(=O)c1c(Cl)ccc(-c2ccn3nc(N)nc3c2)c1F (single isomer, unassigned)', 'MLKL phosphorylation in HT29-L23 human colorectal adenocarcinoma cells', 'IC50', 2.4),
  ('Nc1nc2cc(-c3ccc(Cl)c(C(=O)NCC(F)(F)Cc4ccc(F)cc4)c3F)ccn2n1', 'MLKL phosphorylation in HT29-L23 human colorectal adenocarcinoma cells', 'IC50', 0.6);

====

# Study target: GST-tagged PIK3Cδ in complex with PIK3R1 (Homo sapiens)
# Experimental details: PI3Kδ HTRF binding assay
# Measurement parameters: HTRF probe displacement, 1 h at rt; read-out: PIK3CD IC50
pIC50: −log10 of the molar value.
Each entry below carries its recorded pIC50.
Readout name: pIC50

INSERT INTO measurements (compound, study_target, assay_value) VALUES
  ('Nc1nc2cc(-c3ccc(Cl)c(C(=O)NCC[C@H](O)c4ccc(Cl)cc4)c3F)ccn2n1', 'GST-tagged PIK3Cδ in complex with PIK3R1 (Homo sapiens)', '< 4.82'),
  ('[2H]C([2H])([2H])C(O)(c1ccc(F)cc1)C(F)CNC(=O)c1c(Cl)ccc(-c2ccn3nc(N)nc3c2)c1F (single isomer, unassigned) [Example 238]', 'GST-tagged PIK3Cδ in complex with PIK3R1 (Homo sapiens)', '< 4.82'),
  ('Cc1cc(F)c(-c2ccn3nc(N)nc3c2)cc1C(=O)NCCC(O)c1ccc(C(F)(F)F)cc1 (racemic) [Example 2]', 'GST-tagged PIK3Cδ in complex with PIK3R1 (Homo sapiens)', '< 4.82'),
  ('COc1ccc(-c2ccn3nc(N)nc3c2)c(F)c1C(=O)NCC(F)(F)C(O)c1ccc(Cl)c(Cl)c1 (stereo not shown) [Example 268]', 'GST-tagged PIK3Cδ in complex with PIK3R1 (Homo sapiens)', 5.06),
  ('COc1c(-c2ccc(C)c(C(=O)NCC(F)(F)C(O)c3ccc(F)cc3)c2F)ccn2nc(N)nc12 (single isomer, unassigned; enantiomer 1)', 'GST-tagged PIK3Cδ in complex with PIK3R1 (Homo sapiens)', '< 4.82'),
  ('Nc1nc2cc(-c3ccc(Cl)c(C(=O)NCCC(O)c4ccc(Cl)cn4)c3F)ccn2n1 (single isomer, unassigned) [Example 82]', 'GST-tagged PIK3Cδ in complex with PIK3R1 (Homo sapiens)', 4.92),
  ('Cc1ccc(-c2ccn3nc(N)nc3c2)c(F)c1C(=O)NCCC(O)c1ccccc1F (single isomer, unassigned) [Example 71]', 'GST-tagged PIK3Cδ in complex with PIK3R1 (Homo sapiens)', '< 4.82'),
  ('[2H]C([2H])(CC([2H])(O)c1ccc(Cl)cc1)NC(=O)c1c(C)ccc(-c2ccn3nc(N)nc3c2)c1F (racemic) [Example 14]', 'GST-tagged PIK3Cδ in complex with PIK3R1 (Homo sapiens)', '< 4.82'),
  ('Cc1cc(F)c(-c2ccn3nc(N)nc3c2)cc1C(=O)NCC(F)(F)C(O)c1ccc(F)cc1 (single isomer, unassigned) [Example 98]', 'GST-tagged PIK3Cδ in complex with PIK3R1 (Homo sapiens)', '< 4.82'),
  ('Cc1ccc(-c2ccn3nc(N)nc3c2)c(F)c1C(=O)NCC(F)(F)C(O)c1ccc(F)c(F)c1 (single isomer, unassigned) [Example 198]', 'GST-tagged PIK3Cδ in complex with PIK3R1 (Homo sapiens)', '< 4.82'),
  ('Cc1cc(F)c(-c2ccn3nc(N)nc3c2)cc1C(=O)NCCC(O)c1ccc(Cl)cn1 (single isomer, unassigned) [Example 7]', 'GST-tagged PIK3Cδ in complex with PIK3R1 (Homo sapiens)', '< 4.82'),
  ('C#Cc1ccc([C@@H](O)CCNC(=O)c2c(C)ccc(-c3ccn4nc(N)nc4c3)c2F)cc1', 'GST-tagged PIK3Cδ in complex with PIK3R1 (Homo sapiens)', '< 4.82'),
  ('Cc1cc(F)c(-c2ccn3nc(N)nc3c2)c(F)c1C(=O)NCC[C@H](O)c1ccc(Cl)cc1', 'GST-tagged PIK3Cδ in complex with PIK3R1 (Homo sapiens)', '< 4.82');

====

Each entry below carries its recorded pIC50.
# Study target: GST-tagged PIK3Cδ in complex with PIK3R1 (Homo sapiens, UniProt O00329)
# Sequence (O00329 whole entry): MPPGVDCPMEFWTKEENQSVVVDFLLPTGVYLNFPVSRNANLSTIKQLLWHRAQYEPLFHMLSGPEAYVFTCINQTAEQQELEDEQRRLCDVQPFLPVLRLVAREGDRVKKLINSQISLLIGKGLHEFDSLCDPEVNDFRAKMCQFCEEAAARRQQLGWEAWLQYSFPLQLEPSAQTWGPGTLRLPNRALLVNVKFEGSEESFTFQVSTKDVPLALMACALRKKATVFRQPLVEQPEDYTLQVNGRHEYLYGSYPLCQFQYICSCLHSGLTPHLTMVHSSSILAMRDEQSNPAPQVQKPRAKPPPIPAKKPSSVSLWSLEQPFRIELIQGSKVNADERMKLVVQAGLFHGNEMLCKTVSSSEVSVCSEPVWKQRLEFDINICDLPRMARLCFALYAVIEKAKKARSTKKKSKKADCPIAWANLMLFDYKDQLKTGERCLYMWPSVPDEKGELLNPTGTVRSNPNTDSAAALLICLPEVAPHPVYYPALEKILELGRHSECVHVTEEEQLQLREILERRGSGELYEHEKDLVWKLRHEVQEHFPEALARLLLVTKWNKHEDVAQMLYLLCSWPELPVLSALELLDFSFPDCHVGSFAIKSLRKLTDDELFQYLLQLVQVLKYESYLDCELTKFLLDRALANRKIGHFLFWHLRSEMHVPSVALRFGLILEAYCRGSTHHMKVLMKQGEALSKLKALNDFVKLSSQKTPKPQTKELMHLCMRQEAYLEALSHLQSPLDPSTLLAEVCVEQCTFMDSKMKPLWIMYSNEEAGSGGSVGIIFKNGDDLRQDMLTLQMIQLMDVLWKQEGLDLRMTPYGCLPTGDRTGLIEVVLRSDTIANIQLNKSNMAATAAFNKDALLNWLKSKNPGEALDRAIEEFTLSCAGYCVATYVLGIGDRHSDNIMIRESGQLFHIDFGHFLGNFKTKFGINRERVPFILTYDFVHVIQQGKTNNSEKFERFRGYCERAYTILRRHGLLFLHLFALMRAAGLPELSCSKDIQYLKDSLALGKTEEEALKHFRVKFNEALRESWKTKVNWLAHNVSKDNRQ
# Sequence (P27986 whole entry partner): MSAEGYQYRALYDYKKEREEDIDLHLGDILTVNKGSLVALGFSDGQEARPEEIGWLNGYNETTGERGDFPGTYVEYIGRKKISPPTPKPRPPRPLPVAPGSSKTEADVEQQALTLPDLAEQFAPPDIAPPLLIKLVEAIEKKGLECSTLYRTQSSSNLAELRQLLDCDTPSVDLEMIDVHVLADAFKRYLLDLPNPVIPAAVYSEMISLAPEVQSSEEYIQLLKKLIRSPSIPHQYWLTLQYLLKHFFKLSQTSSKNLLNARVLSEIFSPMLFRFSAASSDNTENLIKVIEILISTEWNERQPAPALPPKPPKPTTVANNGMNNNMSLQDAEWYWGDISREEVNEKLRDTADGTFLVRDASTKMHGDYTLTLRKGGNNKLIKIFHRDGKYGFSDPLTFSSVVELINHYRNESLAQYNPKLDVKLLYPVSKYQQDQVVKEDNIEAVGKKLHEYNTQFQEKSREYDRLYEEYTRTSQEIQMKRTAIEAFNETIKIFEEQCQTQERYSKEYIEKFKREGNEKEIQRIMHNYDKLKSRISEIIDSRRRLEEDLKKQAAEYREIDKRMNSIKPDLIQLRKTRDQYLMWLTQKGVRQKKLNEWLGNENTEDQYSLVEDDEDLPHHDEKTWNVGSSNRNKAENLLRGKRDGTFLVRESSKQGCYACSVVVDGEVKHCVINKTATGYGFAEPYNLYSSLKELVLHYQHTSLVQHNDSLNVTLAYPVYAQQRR
# Experimental details: PI3Kδ HTRF binding assay
# Measurement parameters: HTRF probe displacement, 1 h at rt; read-out: PIK3CD IC50
pIC50: −log10 of the molar value.
Readout name: pIC50

INSERT INTO results (compound, assay_value) VALUES
  ('CC(O)(CCNC(=O)c1cc(-c2ccn3nc(N)nc3c2)ccc1Cl)c1ccccc1 (centres unmarked)', 4.96),
  ('Cc1ccc(-c2ccn3nc(N)nc3c2)c(F)c1C(=O)NCCC(O)c1ccc(F)cc1 (single isomer, unassigned) [Example 50]', '< 4.82'),
  ('Nc1nc2cc(-c3ccc(Cl)c(C(=O)NCCC(O)c4ccc(Cl)cn4)c3F)ccn2n1 (single isomer, unassigned) [Example 83]', 4.96),
  ('Nc1nc2cc(-c3c(F)ccc(C(=O)NCC[C@@H](O)c4ccc(Cl)cc4)c3F)ccn2n1', '< 4.82'),
  ('CCc1ccc(-c2ccn3nc(N)nc3c2)c(F)c1C(=O)NCC[C@@H](O)c1ccc(Cl)cc1', '< 4.82'),
  ('Cc1ccc(-c2ccn3nc(N)nc3c2)c(F)c1C(=O)NCCC(O)c1ccc(C(F)(F)F)cc1 (single isomer, unassigned) [Example 56]', '< 4.82'),
  ('Cc1ccc(-c2ccn3nc(N)nc3c2)c(F)c1C(=O)NCCC(O)c1ccccc1F (single isomer, unassigned) [Example 70]', '< 4.82'),
  ('Cc1ccc(-c2ccn3nc(N)nc3c2)c(F)c1C(=O)NCCC(O)c1cccc(F)c1 (single isomer, unassigned)', 4.89),
  ('Cc1ccc(-c2ccn3nc(N)nc3c2)c(F)c1C(=O)NC[C@H](F)[C@@H](O)c1ccc(Cl)cc1 (single isomer, unassigned)', '< 4.82'),
  ('Nc1nc2cc(-c3ccc(Cl)c(C(=O)NC[C@@H](F)[C@@H](O)c4ccc(F)cc4)c3F)ccn2n1 (single isomer, unassigned)', 5.10),
  ('Cc1ccc(-c2ccn3nc(N)nc3c2)cc1C(=O)NCC[C@H](O)c1ccc(Cl)cc1', '< 4.82'),
  ('Cc1ccc(-c2ccn3nc(N)nc3c2)c(F)c1C(=O)NC(CF)CC(O)c1ccc(Cl)cc1 (single isomer, unassigned) [Example 23]', '< 4.82'),
  ('Cc1ccc(-c2ccn3nc(N)nc3c2F)c(F)c1C(=O)NCC[C@H](O)c1ccc(Cl)cc1', '< 4.82'),
  ('Cc1c(C(=O)NC(C)CC(O)c2ccc(Cl)cc2)cc(-c2ccn3nc(N)nc3c2)c(F)c1F (racemic) [Example 100]', '< 4.82');

====

# Study target: GST-tagged PIK3Cδ in complex with PIK3R1 (Homo sapiens, UniProt O00329)
# Experimental details: PI3Kδ HTRF binding assay
# Measurement parameters: HTRF probe displacement, 1 h at rt; read-out: PIK3CD IC50
Each entry below carries its recorded IC50.
Readout name: IC50

INSERT INTO measurements (compound, assay_value) VALUES
  ('Cc1ccc(-c2ccn3nc(N)nc3c2)c(F)c1C(=O)NC(CF)CC(O)c1ccc(F)cc1 (single isomer, unassigned) [Example 27]', '> 15 µM'),
  ('Cc1c(C(=O)NCC[C@H](O)c2ccc(Cl)cc2)cc(-c2ccn3nc(N)nc3c2)c(F)c1F', '> 15 µM'),
  ('[2H]C([2H])(CC([2H])(O)c1ccc(Cl)cc1)NC(=O)c1c(C)ccc(-c2ccn3nc(N)nc3c2)c1F (single isomer, unassigned) [Example 54]', '> 15 µM');

====

# Study target: His-GST-TVMV-hRIPK1(1-324) (Homo sapiens)
# Construct: The coding region of human RIPK1(1-324) flanked by NdeI site at 5′ end; made in house; host or cells: Spodoptera frugiperda Sf9 insect cells (baculovirus, Bac-to-Bac)
# Sequence (Q13546 1-324): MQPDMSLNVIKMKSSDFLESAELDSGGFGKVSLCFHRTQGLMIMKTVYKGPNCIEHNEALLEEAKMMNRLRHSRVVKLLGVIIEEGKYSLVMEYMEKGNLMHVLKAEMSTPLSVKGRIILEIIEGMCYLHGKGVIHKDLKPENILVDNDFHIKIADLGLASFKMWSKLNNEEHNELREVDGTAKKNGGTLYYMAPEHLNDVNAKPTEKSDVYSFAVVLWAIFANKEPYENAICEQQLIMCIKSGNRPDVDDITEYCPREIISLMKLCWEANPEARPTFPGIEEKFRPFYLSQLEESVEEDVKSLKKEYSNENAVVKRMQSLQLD
# Experimental details: biochemical
# Type: binding
# Measurement parameters: HTRF probe displacement, 1 h at rt; read-out: RIPK1 IC50
Readout name: IC50 (nM)

INSERT INTO results (molecule, study_target, readout_name, assay_value) VALUES
  ('Nc1nc2cc(-c3ccc(Cl)c(C(=O)NCC(F)(F)C(O)c4cccc(F)c4F)c3F)ccn2n1 (single isomer, unassigned) [Example 167]', 'His-GST-TVMV-hRIPK1(1-324) (Homo sapiens)', 'IC50', 15),
  ('Cc1ccc(-c2ccn3nc(N)nc3c2)c(F)c1C(=O)NCCC(c1ccccc1)C(F)(F)F (single isomer, unassigned) [Example 12]', 'His-GST-TVMV-hRIPK1(1-324) (Homo sapiens)', 'IC50', 3),
  ('Cc1cc(F)c(-c2ccn3nc(N)nc3c2)cc1C(=O)NCCC(O)c1ccc(F)cc1 (single isomer, unassigned) [Example 9]', 'His-GST-TVMV-hRIPK1(1-324) (Homo sapiens)', 'IC50', 6.2);
